Data origin: PubChem BioAssay

target: Mitogen-activated protein kinase 7 (Homo sapiens) (UniProt Q13164); assay: ERK5 transactivation activators in reporter cells, primary screen, cell-based, HTS (AID 1508626); conditions: HeLa Gal4-ERK5 transactivation, 18 h, at 5 µM, stronger effect = higher value;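 note: luciferase driven by Gal4-ERK5 fusion binding five Gal4 sites before minimal TATA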
Sequence (Q13164 whole entry, looked up, the tested form may be a part): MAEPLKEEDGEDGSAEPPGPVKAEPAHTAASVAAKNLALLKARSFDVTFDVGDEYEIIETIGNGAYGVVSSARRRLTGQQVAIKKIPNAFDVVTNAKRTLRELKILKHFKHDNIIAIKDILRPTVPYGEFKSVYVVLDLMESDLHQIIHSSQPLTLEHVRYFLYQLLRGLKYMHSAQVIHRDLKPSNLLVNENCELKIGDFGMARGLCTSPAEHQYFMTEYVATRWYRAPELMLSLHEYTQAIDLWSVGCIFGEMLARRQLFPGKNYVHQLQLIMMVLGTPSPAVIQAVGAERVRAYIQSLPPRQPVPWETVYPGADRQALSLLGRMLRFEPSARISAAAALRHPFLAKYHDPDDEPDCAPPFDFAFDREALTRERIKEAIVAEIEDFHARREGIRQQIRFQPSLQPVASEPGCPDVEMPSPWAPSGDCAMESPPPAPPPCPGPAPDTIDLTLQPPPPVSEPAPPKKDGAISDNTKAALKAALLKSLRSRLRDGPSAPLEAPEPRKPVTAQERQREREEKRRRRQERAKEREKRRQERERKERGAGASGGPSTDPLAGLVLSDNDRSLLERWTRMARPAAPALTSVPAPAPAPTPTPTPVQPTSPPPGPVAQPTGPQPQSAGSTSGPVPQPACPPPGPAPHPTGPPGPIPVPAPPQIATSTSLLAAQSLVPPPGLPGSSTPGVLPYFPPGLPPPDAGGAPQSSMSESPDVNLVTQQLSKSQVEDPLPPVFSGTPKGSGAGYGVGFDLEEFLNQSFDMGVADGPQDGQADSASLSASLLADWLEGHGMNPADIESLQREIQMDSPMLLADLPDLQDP
Activity calls are given as the source filed them.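 Rule for the calls: active = luciferase signal above three times the same-plate solvent-only control wells; inactive = the rest.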
VALUE_TYPE: luciferase signal

COMPOUND	EXPERIMENTAL_SYSTEM	VALUE_TYPE	DATA_VALUE
CC(C)(C)NCC(O)COc1cccc2c1C[C@H](O)[C@H](O)C2 (stereo partly specified)	Mitogen-activated protein kinase 7 (Homo sapiens) (UniProt Q13164)	luciferase signal	100 AU (inactive)

Data request: What value of luciferase signal on Mitogen-activated protein kinase 7 (Homo sapiens) (UniProt Q13164) does Cc1ccc(O)c([C@H](CCN(C(C)C)C(C)C)c2ccccc2)c1 have?
Data returned: 64 AU (inactive)

Data request: Lab note: need luciferase signal for NCc1ccc(S(N)(=O)=O)cc1 on Mitogen-activated protein kinase 7 (Homo sapiens) (UniProt Q13164), anyone have it?
Data returned: 92 AU (inactive)

Data request: What luciferase signal appears in the records for this compound with Mitogen-activated protein kinase 7 (Homo sapiens) (UniProt Q13164)? CCCNC(C)C(=O)Nc1ccccc1C (stereo unspecified)
Data returned: 232 AU (inactive)

Data request: Test system Mitogen-activated protein kinase 7 (Homo sapiens) (UniProt Q13164); read-out luciferase signal; what value for CC1=C(C(=O)O)N2C(=O)[C@@H](NC(=O)[C@H](N)c3ccccc3)[C@H]2SC1 ?
Data returned: 40 AU (inactive)

Data request: Which measured luciferase signal belongs to CCN(CC)CC(=O)Nc1c(C)cccc1C , tested on Mitogen-activated protein kinase 7 (Homo sapiens) (UniProt Q13164)?
Data returned: 48 AU (inactive)

* * *

experiment: growth inhibition of GSK3B-pretreated HCT116 cells – cell-based, CellTiter-Glo, 0.2 to 20 µM (AID 1117336); settings: HCT116 viability after GSK3B inhibitor, at 20 µM, stronger effect = higher value
Listing of entries alongside the reported viability decrease.
Reply with just the number (in %).

For orientation, consider the following solved cases.
MOLECULE	OUTPUT_UNIT	viability decrease
CN1CCC[C@@H]1c1cccnc1	%	-2.3
Cc1onc(-c2ccccc2)c1-c1ccc(S(N)(=O)=O)cc1	%	-37.3
CC1(C)OC(=O)Nc2ccc(Br)cc21	%	9.6
N=C(N)n1cccn1	%	-5.8
S=c1nc[nH]c2nc[nH]c12	%	77.7
CCCCCC=CCC=CCCCCCCCC(=O)OCC	%	-40

Data request: Need viability decrease of CCN(CC)CC(=O)OCC(=O)[C@@]1(O)CC[C@H]2[C@@H]3CCC4=CC(=O)CC[C@]4(C)[C@H]3[C@@H](O)C[C@@]21C , thanks.
Data returned: -24.6

Data request: Quick check: viability decrease of O=C1NC(=O)C(c2ccccc2)(c2ccccc2)N1 ?
Data returned: 7

Data request: Using the record for N[C@@H](C(=O)N[C@@H]1C(=O)N2C(C(=O)O)=C(Cl)CS[C@H]12)c1ccccc1 , report its viability decrease.
Data returned: 12.5

Data request: viability decrease for Oc1ccccc1C=NCc1ccccc1 ?
Data returned: 0.9

Data request: Look at this molecule and give its reported viability decrease. CC1COc2c(N3CCN(C)CC3)c(F)cc3c(=O)c(C(=O)O)cn1c23 (configuration not stated)
Data returned: 14.4

Data request: Any idea what viability decrease was measured for CC(C)=CCC1C(=O)N(c2ccccc2)N(c2ccccc2)C1=O ?
Data returned: 45.1
